target: LHRH binding sites on EFO-27 human ovarian cancer cells (human); assay: competition with [125I-Tyr8]BRU-2477 on EFO-27 cells
pEC50: −log10 of the molar value. Non-standard residues stand in square brackets, D forms with d. Primed or numbered codes have the meaning given here. DO3A10CM″ = chelating group at the N-terminus (X in the sequence tables); Bpa = N[C@@H](Cc1ccc(C(=O)c2ccccc2)cc1)C(=O)O; His(1-Me) = 1-methylhistidine; DO3A10CM = not defined here; Damfe4 = not defined here; Hpgly = not defined here; azaGly = NNC(=O)O; Sar = CNCC(=O)O
Assign MET to entries whose pEC50 meets or exceeds 6; assign NOT MET to the rest.

**Query** API: above_or_equal(metric=pEC50, cutoff=6) for item DO3A10CM-[Damfe4][Damfe4]WSH[dR]W[Bpa]P[azaGly]-NH2 (reading uncertain) [BRU-3095]
**Result** MET

**Query** // next record {DO3A10CM″}-[Sar][His(1-Me)]WSH[dR]W[Bpa]P[azaGly]-NH2 [BRU-2741]
**Result** NOT MET

**Query** Then this binder: DO3A10CM-G[Hpgly]HWSH[dR]W[Bpa]P[azaGly]-NH2 (reading uncertain) [BRU-2797]
**Result** MET

**Query** Okay, and XHWSHXWXPX (DO3A10CM on N-terminus; AA1 Sar; AA6 Dharg; AA8 Bpa4; AA10 azaGly-NH2) [BRU-2893] ?
**Result** NOT MET

**Query** Same again, this time with XRWSHXWXPX (DO3A10CM on N-terminus; AA1 Sar; AA6 Darg; AA8 Bpa4; AA10 azaGly-NH2) [BRU-2817]
**Result** NOT MET
